Provide the reported IC50 of each item.
System: CCRF-CEM
Test: Compound was tested for antiproliferative activity against CCRF-CEM, human acute T-lymphoblastic leukemia
Format: functional, cell-based
Kindly answer with a numeric value in nM, unit omitted.

Query: Provide measured IC50 value, entry: `NC(=O)c1c[se]c([C@@H]2O[C@H](CO)[C@@H](O)[C@H]2O)n1`
Result: 1200

Query: Retrieve IC50 measured for `NC(=O)c1c[se]c([C@@H]2O[C@H](CO)[C@@H](O)[C@H]2O)c1` and print it.
Result: 300

###

System: HT-29
Assay: Compound was tested for antiproliferative activity against HT29, human colon adenocarcinoma
Assay type: functional, cell-based
Answer each item with its documented IC50.
Your answer is read as µM, so omit the unit and give the number.

Query: Output measured IC50 for this item: `NC(=O)c1c[se]c([C@@H]2O[C@H](CO)[C@@H](O)[C@H]2O)c1`
Result: 3.5

Query: // Input: `NC(=O)c1c[se]c([C@@H]2O[C@H](CO)[C@@H](O)[C@H]2O)n1` . Output its IC50 only.
Result: 7.7

Query: For the compound `NC(=O)c1csc([C@@H]2O[C@H](CO)[C@@H](O)[C@H]2O)c1` , give its measured IC50 value.
Result: 40

Query: Query IC50 for `NC(=O)c1csc([C@@H]2O[C@H](CO)[C@@H](O)[C@H]2O)n1`
Result: 100

###

Exercise: state measured pIC50 for each of the molecules provided.
Test system: CHO-K1
Experiment: Compound was tested for antiproliferative activity against CHO-K1, Chinese hamster ovary cells
Assay type: functional, cell-based
Conditions: Cricetulus griseus
The read-out pIC50 is expressed as -log10 of concentration in moles per litre.

Query: Hello, please tell me recorded pIC50 for this one: NC(=O)c1csc([C@@H]2O[C@H](CO)[C@@H](O)[C@H]2O)n1 [TIAZOFURIN]
Result: 5.19

Query: Given `NC(=O)c1csc([C@@H]2O[C@H](CO)[C@@H](O)[C@H]2O)c1` , respond with its pIC50.
Result: 4.26
